Molecular target: T1, FLAG-tagged human APRIL (human, UniProt O75888 105-250, limits assumed)
T1 construct: also called FLAG-tagged APRIL; FLAG-APRIL; not shown: FLAG tag
T1 sequence (looked up): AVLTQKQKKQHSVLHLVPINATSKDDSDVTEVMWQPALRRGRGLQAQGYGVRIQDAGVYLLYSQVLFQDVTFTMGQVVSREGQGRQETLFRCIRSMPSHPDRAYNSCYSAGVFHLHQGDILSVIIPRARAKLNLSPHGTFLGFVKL
Assay: FLAG-APRIL ELISA after 10 min at 65 °C, antibody at 3.16 µg/ml
ASSAY METRIC: % residual binding after heat treatment (room temperature = 100%)

>>> numeric_result("VH14_1G.VL15 (antibody, human IgG4 S228P, kappa, V domains shown, VH14_1 with R67K and V68A; Humanized IgG4 (S241P, Kabat) with human kappa; also called 14_1G.15; 14_1 G.15) VH: QVQLVQSGAEVKKPGASVKVSCKASGYTFTSYVMHWVRQAPGQGLEWMGYINPYNDAPKYNEKFKGKATMTSDTSASTAYMELSSLRSDDTAVYYCARGLGYALYYAMDYWGQGTTVTVSS VL: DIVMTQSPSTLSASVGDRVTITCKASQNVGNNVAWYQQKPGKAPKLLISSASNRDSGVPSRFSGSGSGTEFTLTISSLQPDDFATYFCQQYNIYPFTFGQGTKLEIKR")
94.5
>>> numeric_result("VH14_1C.VL15 (antibody, human IgG4, V domains shown, VH14_1 with M70I; Rest is human IgG4 (S241P, Kabat) and human kappa; also called 14_1C.15) VH: QVQLVQSGAEVKKPGASVKVSCKASGYTFTSYVMHWVRQAPGQGLEWMGYINPYNDAPKYNEKFKGRVTITSDTSASTAYMELSSLRSDDTAVYYCARGLGYALYYAMDYWGQGTTVTVSS VL: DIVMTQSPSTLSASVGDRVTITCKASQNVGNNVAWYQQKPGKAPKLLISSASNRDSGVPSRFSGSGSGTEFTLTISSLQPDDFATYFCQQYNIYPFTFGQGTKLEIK")
86.3
>>> numeric_result("VH14_1D.VL15 (antibody, human IgG4, V domains shown, VH14_1 with T74K; Rest is human IgG4 (S241P, Kabat) and human kappa; also called 14_1D.15) VH: QVQLVQSGAEVKKPGASVKVSCKASGYTFTSYVMHWVRQAPGQGLEWMGYINPYNDAPKYNEKFKGRVTMTSDKSASTAYMELSSLRSDDTAVYYCARGLGYALYYAMDYWGQGTTVTVSS VL: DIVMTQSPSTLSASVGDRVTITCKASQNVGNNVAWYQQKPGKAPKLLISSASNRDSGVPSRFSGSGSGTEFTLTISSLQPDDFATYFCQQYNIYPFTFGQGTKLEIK")
75.3
>>> numeric_result("VH14_1E.VL15 (antibody, human IgG4, V domains shown, VH14_1 with Q1E; Rest is human IgG4 (S241P, Kabat) and human kappa; also called 14_1E.15) VH: EVQLVQSGAEVKKPGASVKVSCKASGYTFTSYVMHWVRQAPGQGLEWMGYINPYNDAPKYNEKFKGRVTMTSDTSASTAYMELSSLRSDDTAVYYCARGLGYALYYAMDYWGQGTTVTVSS VL: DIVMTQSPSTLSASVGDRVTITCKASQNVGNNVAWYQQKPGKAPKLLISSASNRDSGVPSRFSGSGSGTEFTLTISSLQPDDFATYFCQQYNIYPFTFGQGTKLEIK")
82.3
>>> numeric_result("VH14_1.VL15 (antibody, human IgG4, V domains shown, VH14 with R72S; rest is human IgG4 (S241P, Kabat) and human kappa; also called 14_1.15; antibody 14_1.15) VH: QVQLVQSGAEVKKPGASVKVSCKASGYTFTSYVMHWVRQAPGQGLEWMGYINPYNDAPKYNEKFKGRVTMTSDTSASTAYMELSSLRSDDTAVYYCARGLGYALYYAMDYWGQGTTVTVSS VL: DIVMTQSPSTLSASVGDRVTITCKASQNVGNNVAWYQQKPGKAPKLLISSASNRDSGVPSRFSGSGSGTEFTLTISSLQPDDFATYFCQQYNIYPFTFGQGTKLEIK")
59.9
>>> numeric_result("VH14.VL15 (antibody, human IgG4 S228P, kappa, V domains shown, Humanized IgG4 (S241P, Kabat) with human kappa, from HEK293T) VH: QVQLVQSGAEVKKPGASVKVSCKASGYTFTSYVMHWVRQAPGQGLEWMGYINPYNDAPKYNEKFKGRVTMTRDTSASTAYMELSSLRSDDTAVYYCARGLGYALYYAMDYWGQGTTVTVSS VL: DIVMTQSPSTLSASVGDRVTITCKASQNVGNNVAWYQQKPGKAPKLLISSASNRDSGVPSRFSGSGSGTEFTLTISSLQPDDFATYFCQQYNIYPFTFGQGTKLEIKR")
59
